Experiment: LC/MS of blood plasma sample: time from blood collection to centrifugation (Table D)
Format: physicochemical, human
Conditions: detection intensity relative to 1 at 15 minutes, blood collection to centrifugation, after 4 hours
Method: At room temperature, 5 mL of blood from a healthy subject was taken into a blood-collecting vessel containing EDTA, and the blood-collecting vessel was inverted for mixing, then cooled, and allowed to stand at 4° C. […]
Checkbox rule: Rate of increase or decrease lower than 2 = t; Rate of increase or decrease not lower than 2 = f.

Find out if reported Rate of increase or decrease for O=C(O)CCC(=O)O [Succinic acid] is less than 2
t

Find out if reported Rate of increase or decrease for Nc1nc2c(ncn2[C@@H]2O[C@H](COP(=O)(O)O)[C@@H](O)[C@H]2O)c(=O)[nH]1 [Guanosine monophosphate] is less than 2
t

Find out if reported Rate of increase or decrease for Nc1ncnc2c1ncn2[C@@H]1O[C@H](COP(=O)(O)O)[C@@H](O)[C@H]1O [Adenosine monophosphate] is less than 2
t

Find out if reported Rate of increase or decrease for Nc1ncnc2c1ncn2[C@@H]1O[C@H](CO)[C@@H](O)[C@H]1O [Adenosine] is less than 2
t

Find out if reported Rate of increase or decrease for N[C@@H](Cc1ccc(O)c(O)c1)C(=O)O [Dopa] is less than 2
f

---

Assay: LC/MS of blood plasma sample: time from blood collection to centrifugation (Table D)
Type: physicochemical, human
Conditions: detection intensity, blood collection to centrifugation, after 6 hours vs 15 minutes
Measurement type: Increase or decrease

NCCCC(=O)O
Decrease
N=C(N)NCCC[C@H](N)C(=O)O
Decrease
O=C(O)CCC(=O)O
Decrease

---

Experiment: GC/MS of blood plasma sample: time from blood collection to centrifugation (Table A)
Format: physicochemical, human
Details: different from individual to individual, individuals with increase, relative to 1 at 15 minutes, collection to centrifugation, after 4 hours
Measurement type: Rate of increase or decrease (first value, increase)
Keep it simple and answer with nothing but the number.

Rate of increase or decrease (first value, increase) lookup needed for O=C[C@H](O)[C@@H](O)[C@H](O)CO , thanks.
1.68

Rate of increase or decrease (first value, increase) lookup needed for O=C(CO)[C@H](O)[C@@H](O)[C@H](O)CO , thanks.
2.10

Rate of increase or decrease (first value, increase) lookup needed for CCC(=O)C(=O)O , thanks.
1.48

Rate of increase or decrease (first value, increase) lookup needed for O=C(O)/C=C\C(=O)O , thanks.
1.75

Rate of increase or decrease (first value, increase) lookup needed for OC[C@@H](O)[C@@H](O[C@@H]1O[C@H](CO)[C@H](O)[C@H](O)[C@H]1O)[C@H](O)[C@@H](O)CO , thanks.
3.36

---

Experiment: LC/MS of serum sample: time from centrifugation to isolation (Table K)
Format: physicochemical, human
Conditions: serum sample, LC/MS; time from centrifugation to isolation; detection intensity changed by 30% or more vs 30 minutes
Measurement type: Time when compound is affected

C[S+]([O-])CC[C@H](N)C(=O)O (stereo partly shown) [Methionine sulfoxide]
After 6 hours
N[C@@H](CC(=O)O)C(=O)O
After 6 hours
Nc1nc2c(ncn2[C@@H]2O[C@@H]3COP(=O)(O)O[C@H]3[C@H]2O)c(=O)[nH]1 [Guanosine 3′,5′-cyclic monophosphate, guanosine 3′,5′-cyclic monophosphate]
After 1 hour hours
Nc1ncnc2c1ncn2[C@@H]1O[C@H](CO)[C@@H](O)[C@H]1O
After 1 hour hours

---

Assay: GC/MS of serum sample: number of times of freezing and thawing (Table I)
Format: physicochemical, human
Set-up: key: detection intensity relative to 2 freeze-thaw cycles = 1
Conditions: detection intensity relative to 1 at 2 times; serum, GC/MS; freezing and thawing 10 times
Measurement type: Rate of increase or decrease
Keep it simple and answer with nothing but the number.

Rate of increase or decrease lookup needed for N=C(N)NCCC[C@H](N)C(=O)O [Arginine] , thanks.
1.51

Rate of increase or decrease lookup needed for NC(=O)NC1NC(=O)NC1=O (stereo not shown) [Allantoin] , thanks.
2.94

Rate of increase or decrease lookup needed for CCCCC/C=C\C/C=C\C/C=C\C/C=C\CCCC(=O)O [Arachidonic acid] , thanks.
1.52

Rate of increase or decrease lookup needed for CCC(N)C(=O)O (stereo not shown) [2-Aminobutyric acid] , thanks.
2.63

---

Assign Rate of increase or decrease to each entry below.
Experiment: GC/MS of serum sample: time from centrifugation to isolation (Table H)
Assay type: physicochemical, human
Parameters: key: detection intensity relative to 1 at 30 min centrifugation-to-isolation
Conditions: detection intensity relative to 1 at 30 minutes, after 6 hours
Keep it simple and answer with nothing but the number.

Rate of increase or decrease lookup needed for CC(=O)N[C@@H](CCC(N)=O)C(=O)O , thanks.
1.58

Rate of increase or decrease lookup needed for CC(=NO)C(=O)O , thanks.
1.34

Rate of increase or decrease lookup needed for NO [Hydroxylamine] , thanks.
1.87

---

Test: GC/MS of serum sample: time from centrifugation to isolation (Table H)
Assay type: physicochemical, human
Conditions: detection intensity, after 1 hour vs 30 minutes
Measurement type: Increase or decrease

Example entries and their recorded answers appear below.
O=C(O)[C@@H]1CC(O)CN1 (some centres unmarked) [4-Hydroxyproline]
Increase
O=C[C@H](O)[C@H](O)[C@H](O)CO
Increase
O=C(O)C=C(CC(=O)O)C(=O)O
Decrease
O=C1CCNC(=O)N1 [Dihydrouracil]
Decrease
OC[C@H]1O[C@@](CO)(O[C@H]2O[C@H](CO)[C@@H](O)[C@H](O)[C@H]2O)[C@@H](O)[C@@H]1O
Increase

Below: the item to evaluate.
Increase or decrease lookup needed for NCCCCN , thanks.
Increase

---

Assign Rate of increase or decrease to each entry below.
Assay: LC/MS of serum sample: number of times of freezing and thawing (Table M)
Type: physicochemical, human
Set-up: key: detection intensity relative to 1 at 2 freeze-thaw cycles
Conditions: 6 times of freezing and thawing; detection intensity relative to 1 at 2 times
Keep it simple and answer with nothing but the number.

Rate of increase or decrease lookup needed for N[C@@H](Cc1ccc(O)cc1)C(=O)O , thanks.
0.60

Rate of increase or decrease lookup needed for C[N+](C)(C)CC(O)CC(=O)[O-] (centres unmarked) , thanks.
0.67

Rate of increase or decrease lookup needed for N[C@@H](Cc1c[nH]c2ccccc12)C(=O)O , thanks.
0.66

Rate of increase or decrease lookup needed for N[C@@H](Cc1c[nH]cn1)C(=O)O , thanks.
0.61

Rate of increase or decrease lookup needed for NC(=O)C[C@H](N)C(=O)O , thanks.
0.66

---

Assay: LC/MS of serum sample: time from blood collection to centrifugation (Table J)
Format: physicochemical, human
Settings: serum sample, LC/MS; time from blood collection to centrifugation; detection intensity changed by 30% or more vs 15 minutes
Measurement type: Time when compound is affected

Nc1ccn([C@@H]2O[C@H](CO)[C@@H](O)[C@H]2O)c(=O)n1
After 4 hours
CC(C)C[C@H](N)C(=O)O
After 12 hours
Nc1ncnc2c1ncn2[C@@H]1O[C@H](CSCC[C@H](N)C(=O)O)[C@@H](O)[C@H]1O
After 4 hours
CC[C@H](C)[C@H](N)C(=O)O
After 12 hours

---

Assign Rate of increase or decrease (second value, decrease) to each entry below.
Experiment: GC/MS of blood plasma sample: time from blood collection to cooling of blood (Table B)
Assay type: physicochemical, human
Settings: different from individual to individual, individuals with decrease, relative to 1 at 1 minute or less, collection to cooling 5 minutes
Keep it simple and answer with nothing but the number.

Rate of increase or decrease (second value, decrease) lookup needed for OC[C@H]1O[C@H](O[C@H]2O[C@H](CO)[C@@H](O)[C@H](O)[C@H]2O)[C@H](O)[C@@H](O)[C@@H]1O [Trehalose] , thanks.
0.58

Rate of increase or decrease (second value, decrease) lookup needed for Cn1c(=O)[nH]c2ncn(C)c2c1=O [Paraxanthine] , thanks.
0.67

Rate of increase or decrease (second value, decrease) lookup needed for O=c1ccn([C@@H]2O[C@H](CO)[C@@H](O)[C@H]2O)c(=O)[nH]1 [Uridine] , thanks.
0.64

Rate of increase or decrease (second value, decrease) lookup needed for O=C(O)/C=C\C(=O)O [Maleic acid] , thanks.
0.54

Rate of increase or decrease (second value, decrease) lookup needed for O=C(O)C(O)Cc1ccccc1 (stereo not drawn) [3-Phenyllactic acid] , thanks.
0.60

Rate of increase or decrease (second value, decrease) lookup needed for CC(=O)N[C@@H](CO)C(=O)O [N-acetylserine] , thanks.
0.69

---

Assay: LC/MS of serum sample: number of times of freezing and thawing (Table M)
Assay type: physicochemical, human
Set-up: key: detection intensity relative to 1 at 2 freeze-thaw cycles
Conditions: 4 times of freezing and thawing; detection intensity relative to 1 at 2 times
Measurement type: Rate of increase or decrease
Keep it simple and answer with nothing but the number.

Rate of increase or decrease lookup needed for Nc1ccn([C@@H]2O[C@H](CO)[C@@H](O)[C@H]2O)c(=O)n1 , thanks.
1.52

Rate of increase or decrease lookup needed for Nc1ncnc2c1ncn2[C@@H]1O[C@H](CO)[C@@H](O)[C@H]1O , thanks.
0.54

Rate of increase or decrease lookup needed for C[S+]([O-])CC[C@H](N)C(=O)O (stereo partly shown) [Methionine sulfoxide] , thanks.
1.55

Rate of increase or decrease lookup needed for NC(=O)NC1NC(=O)NC1=O (stereo not shown) , thanks.
3.27

Rate of increase or decrease lookup needed for OC[C@H]1O[C@@H](n2cnc3c(O)ncnc32)[C@H](O)[C@@H]1O , thanks.
1.44

Rate of increase or decrease lookup needed for NCCC(=O)N[C@@H](Cc1cnc[nH]1)C(=O)O , thanks.
0.59

Rate of increase or decrease lookup needed for N[C@@H](CS)C(=O)O , thanks.
1.37
